# procedure-summary: Primary qHTS for inhibitors of nuclear receptor binding SET domain protein 2 (NSD2) in an isogenic RCH-ACV NSD2 p.E1099K mutant (9B) (AID 1645876); further: nearly all actives have a fitted effect of over 70% in size
# condition-parameters: RCH-ACV (leukaemia line) NSD2 E1099K (9B) viability, CellTiter-Glo, 72 h; series mostly up to 44.9 µM
Inconclusive results are not listed. Activity calls are given as the source filed them. The call rests on the fitted dose curve; in most records, active means well fitted inhibition curve with a large enough effect; inconclusive means small, poorly fitted or top-dose-only effect; inactive means flat fitted curve, though single readings scatter.
measured-quantity: outcome

- NNc1nncc2ccccc12: inactive
- O=C(O)CCNC(=O)c1ccc(N=Nc2ccc(O)c(C(=O)O)c2)cc1: inactive
- CCC(C)(Oc1ccc(C2(c3ccc(OC(C)(CC)C(=O)O)cc3)CCCCC2)cc1)C(=O)O (stereo unspecified): inactive
- Cc1cc(=O)oc2cc(O)ccc12: inactive
- CC1=C(C)C(=O)C(C(CCCCCC(=O)O)c2ccccc2)=C(C)C1=O (stereo unspecified): inactive
- COc1ccccc1N1CCN(CCN(C(=O)C2CCCCC2)c2ccccn2)CC1: inactive

Values compiled from PubChem BioAssay (NCATS).
